These entries and their values trace back to ChEMBL document CHEMBL3044631.

test system: OVCAR-8; assay: Anticancer activity against Homo sapiens (human) OVCAR8 cells assessed as cell growth promotion at 10 uM after 48 hr by SRB assay; assay type: functional
Property: Activity (%)
Write the number in % without appending the unit.

Consider the following illustrative entries.
> print(dat)
                                smiles.data  property  reported.measurement
1  Cc1nc(SCC(=O)Nc2nccs2)n(Nc2ccc(Cl)cc2)c1C  Activity                 104.9
2  CCOC(=O)c1csc(NC(=O)CSc2nc(C)c(C)n2Nc2ccc(C)cc2)n1  Activity                 82.64
3  COc1ccc(Nn2c(SCC(=O)Nc3nc(-c4ccc(Cl)cc4)cs3)nc(C)c2C)cc1  Activity                 43.88
4  Cc1ccc(Nn2c(SCC(=O)Nc3nc(-c4ccccc4)cs3)nc(C)c2C)cc1  Activity                 55.49
5  COc1ccc(Nn2c(SCC(=O)Nc3nccs3)nc(C)c2C)cc1  Activity                103.25

Exercise: Activity for Cc1nc(SCC(=O)Nc2nc(-c3ccc(Cl)cc3)cs2)n(Nc2ccccc2)c1C ?
Solution: 31.91

Exercise: Activity for Cc1nc(SCC(=O)Nc2nccs2)n(Nc2ccccc2)c1C ?
Solution: 95.17

---

Recorded Activity, one value per entry.
test system: NCI-H322M; assay: Anticancer activity against Homo sapiens (human) NCI-H322M cells assessed as cell growth promotion at 10 uM after 48 hr by SRB assay; type: functional
Write the number in % without appending the unit.

Consider the following illustrative entries.
> print(dat)
                                smiles.data  study.target  reported.measurement
1  Cc1nc(SCC(=O)Nc2nc(-c3ccc(Cl)cc3)cs2)n(Nc2ccccc2)c1C     NCI-H322M                 70.81
2  COc1ccc(Nn2c(SCC(=O)Nc3nc(-c4ccc(Cl)cc4)cs3)nc(C)c2C)cc1     NCI-H322M                 111.9
3     Cc1nc(SCC(=O)Nc2nccs2)n(Nc2ccccc2)c1C     NCI-H322M                118.03
4  Cc1ccc(Nn2c(SCC(=O)Nc3nc(-c4ccccc4)cs3)nc(C)c2C)cc1     NCI-H322M                 96.01
5  Cc1nc(SCC(=O)Nc2nccs2)n(Nc2ccc(Cl)cc2)c1C     NCI-H322M                 131.8

Exercise: Activity for CCOC(=O)c1csc(NC(=O)CSc2nc(C)c(C)n2Nc2ccc(C)cc2)n1 ?
Solution: 97.18

Exercise: Activity for COc1ccc(Nn2c(SCC(=O)Nc3nccs3)nc(C)c2C)cc1 ?
Solution: 110.58

---

system: CCRF-CEM; assay: Anticancer activity against Homo sapiens (human) CCRF-CEM cells assessed as cell growth promotion at 10 uM after 48 hr by SRB assay; format: functional
Recorded Activity, one value per entry.
Write the number in % without appending the unit.

Consider the following illustrative entries.
> print(dat)
                                smiles.data  unit.descriptor  reported.measurement
1     Cc1nc(SCC(=O)Nc2nccs2)n(Nc2ccccc2)c1C                %                102.19
2  COc1ccc(Nn2c(SCC(=O)Nc3nccs3)nc(C)c2C)cc1                %                100.87
3  Cc1nc(SCC(=O)Nc2nccs2)n(Nc2ccc(Cl)cc2)c1C                %                 99.59
4  CCOC(=O)c1csc(NC(=O)CSc2nc(C)c(C)n2Nc2ccc(C)cc2)n1                %                 24.68

Exercise: Activity for Cc1ccc(Nn2c(SCC(=O)Nc3nc(-c4ccccc4)cs3)nc(C)c2C)cc1 ?
Solution: 57.71

---

test system: UACC-62; assay: Anticancer activity against Homo sapiens (human) UACC62 cells assessed as cell growth promotion at 10 uM after 48 hr by SRB assay; type: functional
Recorded Activity, one value per entry.
Write the number in % without appending the unit.

Consider the following illustrative entries.
> print(dat)
                                smiles.data  study.target  property  unit.descriptor  reported.measurement
1  Cc1ccc(Nn2c(SCC(=O)Nc3nc(-c4ccccc4)cs3)nc(C)c2C)cc1       UACC-62  Activity                %                 51.82
2  Cc1nc(SCC(=O)Nc2nccs2)n(Nc2ccc(Cl)cc2)c1C       UACC-62  Activity                %                104.39
3  COc1ccc(Nn2c(SCC(=O)Nc3nc(-c4ccc(Cl)cc4)cs3)nc(C)c2C)cc1       UACC-62  Activity                %                 49.53
4  COc1ccc(Nn2c(SCC(=O)Nc3nccs3)nc(C)c2C)cc1       UACC-62  Activity                %                 95.78
5  Cc1nc(SCC(=O)Nc2nc(-c3ccc(Cl)cc3)cs2)n(Nc2ccccc2)c1C       UACC-62  Activity                %                 34.83
6  CCOC(=O)c1csc(NC(=O)CSc2nc(C)c(C)n2Nc2ccc(C)cc2)n1       UACC-62  Activity                %                 62.91

The record that follows has no Activity shown yet.
Exercise: Activity for Cc1nc(SCC(=O)Nc2nccs2)n(Nc2ccccc2)c1C ?
Solution: 94.24

---

test system: HOP-92; experiment: Anticancer activity against Homo sapiens (human) HOP92 cells assessed as cell growth promotion at 10 uM after 48 hr by SRB assay; format: functional
Property: Activity (%)
Write the number in % without appending the unit.

Consider the following illustrative entries.
> print(dat)
                                smiles.data  reported.measurement
1  CCOC(=O)c1csc(NC(=O)CSc2nc(C)c(C)n2Nc2ccc(C)cc2)n1                 44.51
2  COc1ccc(Nn2c(SCC(=O)Nc3nc(-c4ccc(Cl)cc4)cs3)nc(C)c2C)cc1                 38.65
3  Cc1nc(SCC(=O)Nc2nccs2)n(Nc2ccc(Cl)cc2)c1C                 96.74

Exercise: Activity for Cc1ccc(Nn2c(SCC(=O)Nc3nc(-c4ccccc4)cs3)nc(C)c2C)cc1 ?
Solution: 59.94

Exercise: Activity for Cc1nc(SCC(=O)Nc2nccs2)n(Nc2ccccc2)c1C ?
Solution: 76.48

Exercise: Activity for COc1ccc(Nn2c(SCC(=O)Nc3nccs3)nc(C)c2C)cc1 ?
Solution: 117.01

---

test system: HCT-15; test: Anticancer activity against Homo sapiens (human) HCT15 cells assessed as cell growth promotion at 10 uM after 48 hr by SRB assay; format: functional
Recorded Activity, one value per entry.

Consider the following illustrative entries.
> print(dat)
                                smiles.data  property  reported.measurement
1     Cc1nc(SCC(=O)Nc2nccs2)n(Nc2ccccc2)c1C  Activity                97.16%
2  Cc1ccc(Nn2c(SCC(=O)Nc3nc(-c4ccccc4)cs3)nc(C)c2C)cc1  Activity                67.18%
3  CCOC(=O)c1csc(NC(=O)CSc2nc(C)c(C)n2Nc2ccc(C)cc2)n1  Activity                98.05%
4  COc1ccc(Nn2c(SCC(=O)Nc3nc(-c4ccc(Cl)cc4)cs3)nc(C)c2C)cc1  Activity                59.76%
5  Cc1nc(SCC(=O)Nc2nc(-c3ccc(Cl)cc3)cs2)n(Nc2ccccc2)c1C  Activity                57.63%
6  Cc1nc(SCC(=O)Nc2nccs2)n(Nc2ccc(Cl)cc2)c1C  Activity               102.77%

The record that follows has no Activity shown yet.
Exercise: Activity for COc1ccc(Nn2c(SCC(=O)Nc3nccs3)nc(C)c2C)cc1 ?
Solution: 100.06%

---

Recorded Activity, one value per entry.
test system: UACC-257; assay: Anticancer activity against Homo sapiens (human) UACC257 cells assessed as cell growth promotion at 10 uM after 48 hr by SRB assay; format: functional
Write the number in % without appending the unit.

> print(dat)
                                smiles.data  reported.measurement
1  Cc1nc(SCC(=O)Nc2nc(-c3ccc(Cl)cc3)cs2)n(Nc2ccccc2)c1C                 46.91

Exercise: Activity for Cc1ccc(Nn2c(SCC(=O)Nc3nc(-c4ccccc4)cs3)nc(C)c2C)cc1 ?
Solution: 54.08

Exercise: Activity for COc1ccc(Nn2c(SCC(=O)Nc3nccs3)nc(C)c2C)cc1 ?
Solution: 108.29

Exercise: Activity for CCOC(=O)c1csc(NC(=O)CSc2nc(C)c(C)n2Nc2ccc(C)cc2)n1 ?
Solution: 88.46

Exercise: Activity for Cc1nc(SCC(=O)Nc2nccs2)n(Nc2ccc(Cl)cc2)c1C ?
Solution: 107.66

Exercise: Activity for Cc1nc(SCC(=O)Nc2nccs2)n(Nc2ccccc2)c1C ?
Solution: 94.83

Exercise: Activity for COc1ccc(Nn2c(SCC(=O)Nc3nc(-c4ccc(Cl)cc4)cs3)nc(C)c2C)cc1 ?
Solution: 48.91
